system: MCF7; assay: Decrease in estrogen receptor alpha level in human MCF7 cells after 4 hrs by in-cell western assay; format: functional, cell-based; conditions: MCF7, 4 h
We'd kindly ask you to apply these EC50 classes: low group: < 0.9 nM; middle group: ≥ 0.9 nM and < 5 nM; high group: ≥ 5 nM

1. O=C(O)/C=C/c1ccc(/C(=C(/CCO)c2ccccc2)c2ccc3[nH]ncc3c2)cc1 = high group
2. CCC/C(=C(/c1ccc(/C=C/C(=O)O)cc1)c1ccc2[nH]ncc2c1)c1ccccc1 = middle group
3. COC/C(=C(/c1ccc(/C=C/C(=O)O)cc1)c1ccc2[nH]ncc2c1)c1ccccc1 = high group
4. O=C(O)/C=C/c1ccc(/C(=C(\c2ccncc2Cl)C2CCC2)c2ccc3[nH]nc(F)c3c2)cc1 = low group
5. CC/C(=C(/c1ccc(/C=C/C(=O)O)cc1)c1cc(C)c2[nH]ncc2c1)c1ccccc1 = high group
6. COc1ccc(/C(=C(\c2ccc(/C=C/C(=O)O)cc2)c2ccc3[nH]nc(F)c3c2)C2CCC2)c(C#N)c1 = low group
7. O=C(O)/C=C/c1ccc(/C(=C(/CCF)c2ccccc2)c2ccc3[nH]ncc3c2)cc1 = middle group
8. O=C(O)/C=C/c1ccc(/C(=C(\c2ccccc2)C(F)(F)F)c2ccc3[nH]ncc3c2)cc1 = middle group
9. CC/C(=C(/c1ccc(/C=C/C(=O)O)cc1)c1cc2cn[nH]c2cn1)c1ccccc1 = high group
10. CC/C(=C(/c1ccc(/C=C/C(=O)O)cc1)c1ccc2[nH]nc(F)c2c1)c1ccccc1 = middle group
11. CC/C(=C(/c1ccc(/C=C/C(=O)O)cc1)c1ccc2[nH]ncc2c1C)c1ccccc1 = high group
12. O=C(O)/C=C/c1ccc(/C(=C(\c2ncccc2C(F)(F)F)C2CCC2)c2ccc3[nH]nc(F)c3c2)cc1 = low group
13. O=C(O)/C=C/c1ccc(/C(=C(\c2ccccc2)C2CCC2)c2ccc3[nH]nc(F)c3c2)cc1 = low group
14. O=C(O)/C=C/c1ccc(/C(=C(\c2ccccc2)C(F)F)c2ccc3[nH]ncc3c2)cc1 = middle group
15. CC/C(=C(/c1ccc(/C=C/C(=O)O)cc1)c1cc(Cl)c2[nH]ncc2c1)c1ccccc1 = high group
16. O=C(O)/C=C/c1ccc(/C(=C(\c2ccccc2)C2CC2)c2ccc3[nH]ncc3c2)cc1 = middle group
17. O=C(O)/C=C/c1ccc(/C(=C(\c2ncc(F)cc2Cl)C2CCC2)c2ccc3[nH]nc(F)c3c2)cc1 = low group
18. O=C(O)/C=C/c1ccc(/C(=C(\c2ncc(C(F)(F)F)cc2Cl)C2CCC2)c2ccc3[nH]nc(F)c3c2)cc1 = middle group
19. O=C(O)/C=C/c1ccc(/C(=C(\c2ccc(F)cc2Cl)C2CCC2)c2ccc3[nH]nc(F)c3c2)cc1 = low group

---

Each entry below carries its reported IC50.
test system: MCF7; experiment: Cytotoxicity against human MCF7 cells assessed as decrease in cell viability after 5 days by celltiterGlo assay; type: functional, cell-based; conditions: MCF7, 120 h
observation-type: IC50

1. CC/C(=C(/c1ccc(/C=C/C(=O)O)cc1)c1cc2cn[nH]c2cc1Cl)c1ccccc1 = 137 nM
2. O=C(O)/C=C/c1ccc(/C(=C(\c2ncc(C(F)(F)F)cc2Cl)C2CCC2)c2ccc3[nH]nc(F)c3c2)cc1 = 4.4 nM
3. CCCC/C(=C(/c1ccc(/C=C/C(=O)O)cc1)c1ccc2[nH]ncc2c1)c1ccccc1 = 10 nM
4. N#Cc1cc(Cl)cnc1/C(=C(\c1ccc(/C=C/C(=O)O)cc1)c1ccc2[nH]nc(F)c2c1)C1CCC1 = 1.1 nM
5. O=C(O)/C=C/c1ccc(/C(=C(/CCO)c2ccccc2)c2ccc3[nH]ncc3c2)cc1 = > 1000 nM
6. CC(C)/C(=C(/c1ccc(/C=C/C(=O)O)cc1)c1ccc2[nH]ncc2c1)c1ccccc1 = 4 nM
7. Cc1cccnc1/C(=C(\c1ccc(/C=C/C(=O)O)cc1)c1ccc2[nH]nc(F)c2c1)C1CCC1 = 4.2 nM
8. CC/C(=C(/c1ccc(/C=C/C(=O)O)cc1)c1cc(F)c2[nH]ncc2c1)c1ccccc1 = 7.5 nM
